# experimental-target: T1, Cre recombinase monomer with W315I mutation
# T1 chain: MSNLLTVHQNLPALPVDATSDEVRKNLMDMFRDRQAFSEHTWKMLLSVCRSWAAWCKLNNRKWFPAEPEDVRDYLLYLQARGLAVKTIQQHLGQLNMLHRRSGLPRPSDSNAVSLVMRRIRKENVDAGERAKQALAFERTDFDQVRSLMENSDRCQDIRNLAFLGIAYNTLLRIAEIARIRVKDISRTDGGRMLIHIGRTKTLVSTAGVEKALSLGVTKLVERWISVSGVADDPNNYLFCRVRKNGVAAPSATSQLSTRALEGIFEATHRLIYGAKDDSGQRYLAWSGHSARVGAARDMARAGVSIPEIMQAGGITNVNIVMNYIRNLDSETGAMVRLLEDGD
measurement-kind: Median dimer activity (recombination on loxP) (%)
Answer with a number only, understood to be in %.

Ask | Returns the measured Median dimer activity (recombination on loxP) for the input protein. Input: Cre recombinase monomer with R292M mutation (protein) MSNLLTVHQNLPALPVDATSDEVRKNLMDMFRDRQAFSEHTWKMLLSVCRSWAAWCKLNNRKWFPAEPEDVRDYLLYLQARGLAVKTIQQHLGQLNMLHRRSGLPRPSDSNAVSLVMRRIRKENVDAGERAKQALAFERTDFDQVRSLMENSDRCQDIRNLAFLGIAYNTLLRIAEIARIRVKDISRTDGGRMLIHIGRTKTLVSTAGVEKALSLGVTKLVERWISVSGVADDPNNYLFCRVRKNGVAAPSATSQLSTRALEGIFEATHRLIYGAKDDSGQRYLAWSGHSAMVGAARDMARAGVSIPEIMQAGGWTNVNIVMNYIRNLDSETGAMVRLLEDGD
Reply | 42

Recorded values, source patent US20230183713A1.
